assay: activity coefficient (dimensionless); of the first substance listed, at infinite dilution; xn = mol fraction of the nth substance listed; conditions: 338.15 K; 101 kPa; Liquid; Chromatography; x1 = 0
The entries below come with measured activity coefficient values attached.
Number only, please.

Check out these entries, answers already filled in.
molecule | measure | meas_value
O [water] + CCCCCCOCn1cc[n+](COCCCCCC)c1.O=S(=O)([N-]S(=O)(=O)C(F)(F)F)C(F)(F)F | activity coefficient | 2.53
CCCCO [butan-1-ol] + CCCCCCOCn1cc[n+](COCCCCCC)c1.O=S(=O)([N-]S(=O)(=O)C(F)(F)F)C(F)(F)F | activity coefficient | 1.01
CO [methanol] + CCCCCCOCn1cc[n+](COCCCCCC)c1.O=S(=O)([N-]S(=O)(=O)C(F)(F)F)C(F)(F)F | activity coefficient | 0.834

QUERY: State, in one line, measured activity coefficient of C=CCCC [1-pentene] + CCCCCCOCn1cc[n+](COCCCCCC)c1.O=S(=O)([N-]S(=O)(=O)C(F)(F)F)C(F)(F)F
RESULT: 1.77

----------
test: activity coefficient (dimensionless); of the first substance listed, at infinite dilution; xn = mol fraction of the nth substance listed; details: 348.15 K; 101 kPa; Liquid; Chromatography; x1 = 0
measure: activity coefficient
Number only, please.

molecule | activity coefficient
Cc1cccc(C)c1 [1,3-dimethylbenzene] + CCCCCCOCn1cc[n+](C)c1.O=S(=O)([N-]S(=O)(=O)C(F)(F)F)C(F)(F)F | 1.48
COC(C)(C)C [2-methoxy-2-methylpropane] + CCCCCCOCn1cc[n+](COCCCCCC)c1.O=S(=O)([N-]S(=O)(=O)C(F)(F)F)C(F)(F)F | 0.859
C1CCCCC1 [cyclohexane] + CCCCCCOCn1cc[n+](COCCCCCC)c1.O=S(=O)([N-]S(=O)(=O)C(F)(F)F)C(F)(F)F | 1.94
C1CCCCCCC1 [cyclooctane] + CCCCCCOCn1cc[n+](C)c1.O=S(=O)([N-]S(=O)(=O)C(F)(F)F)C(F)(F)F | 6.06
CCc1ccccc1 [ethylbenzene] + CCCCCCOCn1cc[n+](C)c1.O=S(=O)([N-]S(=O)(=O)C(F)(F)F)C(F)(F)F | 1.5

QUERY: State, in one line, measured activity coefficient of Cc1ccccc1 [toluene] + CCCCCCOCn1cc[n+](C)c1.O=S(=O)([N-]S(=O)(=O)C(F)(F)F)C(F)(F)F
RESULT: 1.1

QUERY: State, in one line, measured activity coefficient of CCCCO [butan-1-ol] + CCCCCCOCn1cc[n+](C)c1.O=S(=O)([N-]S(=O)(=O)C(F)(F)F)C(F)(F)F
RESULT: 1.34

----------
assay: activity coefficient (dimensionless); of the first substance listed, at infinite dilution; xn = mol fraction of the nth substance listed; conditions: 338.15 K; 101 kPa; Liquid; Chromatography; x1 = 0
The entries below come with measured activity coefficient values attached.
Number only, please.

molecule | activity coefficient
CCCOCCC [dipropyl ether] + CCCCCCOCn1cc[n+](C)c1.O=S(=O)([N-]S(=O)(=O)C(F)(F)F)C(F)(F)F | 2.83
C1CCCCCCC1 [cyclooctane] + CCCCCCOCn1cc[n+](COCCCCCC)c1.O=S(=O)([N-]S(=O)(=O)C(F)(F)F)C(F)(F)F | 2.72
CCCCO [butan-1-ol] + CCCCCCOCn1cc[n+](C)c1.O=S(=O)([N-]S(=O)(=O)C(F)(F)F)C(F)(F)F | 1.45
C1CCCC1 [cyclopentane] + CCCCCCOCn1cc[n+](COCCCCCC)c1.O=S(=O)([N-]S(=O)(=O)C(F)(F)F)C(F)(F)F | 1.65
CC(C)=O [acetone] + CCCCCCOCn1cc[n+](COCCCCCC)c1.O=S(=O)([N-]S(=O)(=O)C(F)(F)F)C(F)(F)F | 0.281
COC(C)(C)C [2-methoxy-2-methylpropane] + CCCCCCOCn1cc[n+](C)c1.O=S(=O)([N-]S(=O)(=O)C(F)(F)F)C(F)(F)F | 1.39

QUERY: State, in one line, measured activity coefficient of CCCCCCCCCC [decane] + CCCCCCOCn1cc[n+](COCCCCCC)c1.O=S(=O)([N-]S(=O)(=O)C(F)(F)F)C(F)(F)F
RESULT: 6.11

QUERY: State, in one line, measured activity coefficient of CCCCCCCC [octane] + CCCCCCOCn1cc[n+](C)c1.O=S(=O)([N-]S(=O)(=O)C(F)(F)F)C(F)(F)F
RESULT: 10.9

QUERY: State, in one line, measured activity coefficient of CCCO [propan-1-ol] + CCCCCCOCn1cc[n+](C)c1.O=S(=O)([N-]S(=O)(=O)C(F)(F)F)C(F)(F)F
RESULT: 1.24

QUERY: State, in one line, measured activity coefficient of Cc1ccccc1C [1,2-dimethylbenzene] + CCCCCCOCn1cc[n+](C)c1.O=S(=O)([N-]S(=O)(=O)C(F)(F)F)C(F)(F)F
RESULT: 1.35

QUERY: State, in one line, measured activity coefficient of C=CCCCC [hex-1-ene] + CCCCCCOCn1cc[n+](C)c1.O=S(=O)([N-]S(=O)(=O)C(F)(F)F)C(F)(F)F
RESULT: 4.33

QUERY: State, in one line, measured activity coefficient of CCCCCC [hexane] + CCCCCCOCn1cc[n+](C)c1.O=S(=O)([N-]S(=O)(=O)C(F)(F)F)C(F)(F)F
RESULT: 6.98
